Multiple publications report Ki for Alpha-2A adrenergic receptor (Homo sapiens); what follows is a combined list.
MEASURED METRIC: Ki (µM)

> print(dat)
                                    molecule  measured.metric  limit.operator  recorded.value
 1  CN(CCCc1cccc(F)c1)[C@H]1C2C3CC4C2C(=O)C2C4C3C21 (stereo partly specified)               Ki               >              10
 2  CC(C)c1ccc(S(=O)(=O)c2n[nH]c3ccc(NC4CCNCC4)cc23)cc1.Cl               Ki               >               5
 3  CC(C)C1C2CCC(C2)C1N (stereo unspecified)               Ki               >              20
 4  CC(Oc1ccccc1-c1ccccc1)C1=NCCS1 (stereo unspecified)               Ki               >              10
 5  C[C@@H]1OC(=O)N(C(=O)NCCCN2CCC(c3ccc(F)cc3)CC2)[C@H]1c1ccc(F)c(F)c1               Ki               >           0.045
 6  CN1CCN(C(=O)C(C)(C)c2ccc(C(=O)Nc3cn4cc(-c5cc(C(C)(C)C)cc(C(C)(C)C)c5)ccc4n3)cc2)CC1               Ki               =            2.66
 7       CN1CCc2c(c3cccc4c3n2CCc2ccccc2-4)C1               Ki               =           0.407
 8  Fc1ccc2c(c1)C=C(CC1CN=CN1)CC2 (stereo unspecified)               Ki               =           0.158
 9  CC[C@H]1c2ccccc2[C@H]2C[C@]21c1c[nH]cn1 (relative stereo)               Ki               =        0.000513
10  c1ccc(C2(c3ccccc3)COCC(C3=NCCN3)O2)cc1 (stereo unspecified)               Ki               =             3.8
11  C[C@H]1CN(C(=O)c2ccc(-c3ccccc3F)cc2)CCN1C(=O)c1ccc2cc[nH]c2c1               Ki               >              10
12  COc1ccccc1N1CCN(CCn2c(=O)[nH]c3scc(-c4cccc(C)c4)c3c2=O)CC1               Ki               =          0.0825
13  CN(C)C[C@H]1CC2c3ccccc3Oc3ccc(Cl)cc3[C@H]2O1 (stereo partly specified)               Ki               =            0.01
14  CCOP(=O)(OCC)C1N=CC2C(=O)N(c3ccc(F)c(Cl)c3)C(=O)C21 (racemic)               Ki               =         0.00324
15  c1ccc2c(c1)C[C@]1(c3cnc[nH]3)C[C@H]21 (stereo in doubt; (+)-1)               Ki               =        7.94e-05
16  C[C@H]1CN(C(=O)c2ccc(-c3cccc(F)c3)cc2)CCN1C(=O)c1ccc2cc[nH]c2c1               Ki               >              10
17  CS(=O)(=O)Nc1c(O)ccc2c1CCCC2c1c[nH]cn1 (stereo unspecified)               Ki               =          0.0447
18  c1ccc2c(c1)CC(CN1CCN(c3ccc4c(c3)OCCO4)CC1)C2               Ki               =           0.249
19           N=C(Nc1ccccc1)Nc1ccc2c(c1)CCCC2               Ki               =           0.263
20  CCOP(=O)(OCC)C1(c2ccccc2)N=CC2C(=O)N(c3cccnc3Cl)C(=O)C21 (racemic)               Ki               >            1000
21                  C1COC(NC(C2CC2)C2CC2)=N1               Ki               =           0.182
